tested on: 699152-130-R-J1-PDC complex spheroid viability; assay: Anticancer human tumor 699152-130-R-J1-PDC patient-derived pancreatic carcinoma cell line growth inhibition [POLQ]; settings: second compound 0.0316 µM; first compound 10 µM; active = viability on the fitted dose curve at most 10% of control; inactive = the rest;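 note: spheroids exposed to agents for 7 days before viability reading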
Outcomes you can answer with include only these: active, inactive

INSERT INTO assay_data (compound, qualitative_label) VALUES
  ('O=c1[nH]cc(F)c(=O)[nH]1 + COC1C(OC(N)=O)C(O)C(Oc2ccc3c(O)c(NC(=O)c4ccc(O)c(CC=C(C)C)c4)c(=O)oc3c2C)OC1(C)C', 'inactive'),
  ('CCCS(=O)(=O)Nc1ccc(F)c(C(=O)c2c[nH]c3ncc(-c4ccc(Cl)cc4)cc23)c1F + Cc1cccc(N(C)C(=O)C2C(O)CCN2c2nc(C)cc(C(F)(F)F)c2C#N)c1', 'inactive'),
  ('CC(C)n1c(=O)n(C)c2cnc3cc(F)c(-c4ccc(OCCCN5CCCCC5)nc4)cc3c21 + Cc1cccc(N(C)C(=O)C2C(O)CCN2c2nc(C)cc(C(F)(F)F)c2C#N)c1', 'inactive'),
  ('COc1cccc2c1C(=O)c1c(O)c3c(c(O)c1C2=O)CC(O)(C(=O)CO)CC3OC1CC(N)C(O)C(C)O1 (configuration not stated) + Nc1ccc(C#CCN(C(=O)Cc2ncc(C(F)(F)F)cc2C(F)(F)F)c2ccc(F)cc2)nn1', 'active'),
  ('CC1COCCN1c1cc(C2(O)CC3CCC(C2)O3)c2cnn(-c3ccn[nH]3)c2n1 (configuration not stated) + COC1C(OC(N)=O)C(O)C(Oc2ccc3c(O)c(NC(=O)c4ccc(O)c(CC=C(C)C)c4)c(=O)oc3c2C)OC1(C)C', 'inactive');

Test call for this compound, please: CCCS(=O)(=O)Nc1ccc(F)c(C(=O)c2c[nH]c3ncc(-c4ccc(Cl)cc4)cc23)c1F + COC1C(OC(N)=O)C(O)C(Oc2ccc3c(O)c(NC(=O)c4ccc(O)c(CC=C(C)C)c4)c(=O)oc3c2C)OC1(C)C inactive

Test call for this compound, please: O=c1[nH]cc(F)c(=O)[nH]1 + Nc1ccc(C#CCN(C(=O)Cc2ncc(C(F)(F)F)cc2C(F)(F)F)c2ccc(F)cc2)nn1 inactive
